TESTED SYSTEM: UniProt:Q9NR97
Sequence (Q9NR97 27-1041): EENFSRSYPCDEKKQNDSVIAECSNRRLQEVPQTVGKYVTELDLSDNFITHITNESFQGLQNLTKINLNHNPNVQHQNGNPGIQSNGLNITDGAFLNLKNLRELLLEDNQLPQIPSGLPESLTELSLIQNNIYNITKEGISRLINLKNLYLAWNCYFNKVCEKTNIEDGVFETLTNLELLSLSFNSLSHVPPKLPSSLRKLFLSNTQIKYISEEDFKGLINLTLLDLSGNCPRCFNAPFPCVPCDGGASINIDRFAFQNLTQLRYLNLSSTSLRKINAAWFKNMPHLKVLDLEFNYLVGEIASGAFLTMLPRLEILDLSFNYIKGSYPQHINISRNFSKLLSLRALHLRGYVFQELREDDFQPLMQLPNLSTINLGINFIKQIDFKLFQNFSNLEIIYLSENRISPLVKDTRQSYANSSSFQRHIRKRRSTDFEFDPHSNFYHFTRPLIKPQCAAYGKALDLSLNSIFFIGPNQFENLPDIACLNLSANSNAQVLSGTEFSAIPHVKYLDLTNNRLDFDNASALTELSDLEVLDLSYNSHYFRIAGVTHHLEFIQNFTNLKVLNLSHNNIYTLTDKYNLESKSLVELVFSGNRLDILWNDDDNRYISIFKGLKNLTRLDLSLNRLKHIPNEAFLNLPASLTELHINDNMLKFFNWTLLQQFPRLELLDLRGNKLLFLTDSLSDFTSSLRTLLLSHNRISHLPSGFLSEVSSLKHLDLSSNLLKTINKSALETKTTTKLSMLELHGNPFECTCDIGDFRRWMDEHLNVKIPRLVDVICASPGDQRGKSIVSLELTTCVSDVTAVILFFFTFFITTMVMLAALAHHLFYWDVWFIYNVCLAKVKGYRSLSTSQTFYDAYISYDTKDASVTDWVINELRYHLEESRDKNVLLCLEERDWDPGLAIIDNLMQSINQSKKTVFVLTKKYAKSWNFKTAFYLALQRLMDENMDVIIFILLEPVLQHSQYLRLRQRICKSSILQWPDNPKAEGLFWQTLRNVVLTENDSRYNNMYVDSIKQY
ASSAY METHOD TEXT: TLR8 inhibition reporter assay (HEK-Blue SEAP reporter, R848 stimulation)
CONDITION: HEK-Blue cells overexpressing human TLR8, SEAP reporter, R848 15.9 μM, 22 hour incubation
pIC50: −log10 of the molar value.
PROPERTY: pIC50

compound=Cc1cc(-c2[nH]c3ccc(C4CCN(CC(=O)N(C)C)CC4)cc3c2C(C)C)cn(CC(F)(F)F)c1=O tested_system=UniProt:Q9NR97 numeric_result=6.95
compound=COc1cc(-c2[nH]c3ccc(C4CCN(C5CCOCC5)CC4)cc3c2C(C)C)cn(C)c1=O tested_system=UniProt:Q9NR97 numeric_result=8.36
compound=Cc1cc(-c2[nH]c3ccc(C4CCN(CC(=O)N(C)C)CC4)cc3c2C(C)C)c(C)n(C)c1=O tested_system=UniProt:Q9NR97 numeric_result=8.28
compound=CCNC(=O)CN1CCC(c2ccc3[nH]c(-c4cn(C)c(=O)c(Cl)c4C)c(C(C)C)c3c2)CC1 tested_system=UniProt:Q9NR97 numeric_result=7.62
compound="Cc1cc(-c2[nH]c3ccc(C4CCN(CC5CCOC5)CC4)cc3c2C(C)C)cn(C)c1=O (stereo not drawn)" tested_system=UniProt:Q9NR97 numeric_result=8.44

a = CC(C)c1c(-c2cc(C(=O)N3CCCC3)c(=O)n(C)c2)[nH]c2ccc(C3CCNCC3)cc12
b = CCn1cc(-c2[nH]c3ccc(C4CCN(C(=O)CN(C)C)CC4)cc3c2C(C)C)cc(C)c1=O
c = Cc1cc(-c2[nH]c3ccc(C4CCN(C5CCC(F)(F)CC5)CC4)cc3c2C(C)C)cn(C)c1=O
I would appreciate it if you could sort these 3 compounds by pIC50, starting from the smallest number. Labels, requested order.
a, b, c
(a: 6.75, b: 8.15, c: 8.38)

1 = CNC(=O)c1cccc(-c2cc(-c3[nH]c4ccc(C5CCNCC5)cc4c3C(C)C)cn(C)c2=O)c1
2 = CCn1nc(-c2[nH]c3ccc(C4CCNCC4)cc3c2C(C)C)cc(C)c1=O
Pick one: 1 or 2 . Which one has the lower reported pIC50? Let me know the label of the one you choose.
1
(1: 6.57, 2: 7.83)
